B1: POU domain, class 3, transcription factor 3, residues 408 to 463; numbered along this chain, P20264 (parent)
chain: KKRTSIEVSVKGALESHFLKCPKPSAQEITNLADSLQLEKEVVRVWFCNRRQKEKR

# Variants of: B1
# ASSAY PROCEDURE: abundance fitness (aPCA) (normalised: wild type 0, dead -1); higher = more abundant; growth selection in yeast, the domain comes from the species named
# ASSAY CONDITIONS: Homo sapiens
Binary call on abundance fitness: 1 from -0.09 upward, -1 beneath that.

KKRTSIEVSVKGALESHFLKCPKPSAQEITNLADSLQLEKWVVRVWFCNRRQKEKR: -1
KKRTSIEVSVKGCLESHFLKCPKPSAQEITNLADSLQLEKEVVRVWFCNRRQKEKR: -1

Q. Item `KKWTSIEVSVKGALESHFLKCPKPSAQEITNLADSLQLEKEVVRVWFCNRRQKEKR` with abundance fitness of -0.09 or above?
A. -1

Q. And `KKRTSIEVSVKGALESHFLKLPKPSAQEITNLADSLQLEKEVVRVWFCNRRQKEKR` ?
A. -1

Q. Try this variant too: `KKRTSIEVSVKGALESHFLKCPKPSAQEITNLADSLQLEKEVVRVWFCNRRQEEKR`
A. 1

Q. Queued: `KKRTSIEVSVKGALESHFLKCPKPSAQEITNLADSLQLEKEVVRVWFCNERQKEKR`
A. -1

Q. Likewise for `KKRTSIEVSVKGALESHFLKMPKPSAQEITNLADSLQLEKEVVRVWFCNRRQKEKR` ?
A. -1

Q. Subsequent entry: `KKRTSIEVSVKGALESHFLKCPKPSAQEITNLADSLQGEKEVVRVWFCNRRQKEKR`
A. -1

Q. Here is the next variant: `KKRTSIEVSVKGALESHFLKCPKPSAQEITNLADSLQLEKEVVRVWFCWRRQKEKR`
A. -1

Q. Similarly, `KKRTSIEVSVKGALESHFLKCPKPSAQEITNLADSLQLEKEVVRVWFCNQRQKEKR` ?
A. -1

Q. Please do the same for `KKRTSIEVSVKGALESHFLKCPKPSAQEITNLADSLQLEKEVVRVWFCNRRQKEKP` as well.
A. -1

Q. Moving on to `KKRTSIEVSVKGALESHFLKCPKPSAQEITNLADSLQLEEEVVRVWFCNRRQKEKR`
A. 1

Q. What do you have for `KKRTSIEVSVKGALEIHFLKCPKPSAQEITNLADSLQLEKEVVRVWFCNRRQKEKR` ?
A. -1

Q. Try this variant next: `KKRTSIEVSVKGALESHFLKKPKPSAQEITNLADSLQLEKEVVRVWFCNRRQKEKR`
A. -1

Q. Next: `KKRTSIEVSVKGALESHFLKCPKPSAQEITNLADSLQLEKEVVRVWFCNRLQKEKR`
A. 1

Q. Same question for `KKRTSIEVSVKGALESHFLKSPKPSAQEITNLADSLQLEKEVVRVWFCNRRQKEKR` please.
A. 1

Q. Please do the same for `KKRTSIAVSVKGALESHFLKCPKPSAQEITNLADSLQLEKEVVRVWFCNRRQKEKR` as well.
A. -1

Q. Here is the next variant: `KKRTSIEVSVKGALESHFLKCPKPSAQEITNLADSLQLEKEVVRVWFGNRRQKEKR`
A. -1

Q. // next record `KKRQSIEVSVKGALESHFLKCPKPSAQEITNLADSLQLEKEVVRVWFCNRRQKEKR`
A. 1

Q. Same for `KKRTSIEVSVKGALESHFLKYPKPSAQEITNLADSLQLEKEVVRVWFCNRRQKEKR`
A. -1

Q. Now consider `KKRTSIEVSVKGALESHFLKCPKPSAQEITNLADSLQLEKEVVRVWFCNRRQKENR` .
A. 1
